# Tested on: EPLC-272H
# experiment-notes: relative viability (nuclei count vs DMSO), 5 days (fraction); higher = more cells survive
# settings: first compound 0.006325 µM
# relative viability listing for each entry below

Reference set, count: 5
{"molecule": "CCNC(=O)c1noc(-c2cc(C(C)C)c(O)cc2O)c1-c1ccc(CN2CCOCC2)cc1 [Luminespib] + CC(C)C[C@H](NC(=O)[C@H](Cc1ccccc1)NC(=O)c1cnccn1)B(O)O [Bortezomib] (partner 0.002 µM)", "relative viability": 0.83}
{"molecule": "CCNC(=O)c1noc(-c2cc(C(C)C)c(O)cc2O)c1-c1ccc(CN2CCOCC2)cc1 [Luminespib] + CC1(C)CCC(c2ccc(Cl)cc2)=C(CN2CCN(c3ccc(C(=O)NS(=O)(=O)c4ccc(N[C@H](CCN5CCOCC5)CSc5ccccc5)c(S(=O)(=O)C(F)(F)F)c4)cc3)CC2)C1 [Navitoclax] (partner 0.5 µM)", "relative viability": 0.831}
{"molecule": "CCNC(=O)c1noc(-c2cc(C(C)C)c(O)cc2O)c1-c1ccc(CN2CCOCC2)cc1 [Luminespib] + NC(=O)Nc1cc(-c2cccc(F)c2)sc1C(=O)N[C@H]1CCCNC1 [AZD7762] (partner 0.2 µM)", "relative viability": 0.389}
{"molecule": "CCNC(=O)c1noc(-c2cc(C(C)C)c(O)cc2O)c1-c1ccc(CN2CCOCC2)cc1 [Luminespib] + N=C(N)NC(=N)NCCc1ccccc1 [Phenformin] (partner 250 µM)", "relative viability": 0.291}
{"molecule": "CCNC(=O)c1noc(-c2cc(C(C)C)c(O)cc2O)c1-c1ccc(CN2CCOCC2)cc1 [Luminespib] + CS(=O)(=O)N1CCN(Cc2cc3nc(-c4cccc5[nH]ncc45)nc(N4CCOCC4)c3s2)CC1 [Pictilisib] (partner 1 µM)", "relative viability": 0.267}

Value (relative viability, EPLC-272H) for record CCNC(=O)c1noc(-c2cc(C(C)C)c(O)cc2O)c1-c1ccc(CN2CCOCC2)cc1 [Luminespib] + Nc1nc2[nH]cc(CCc3ccc(C(=O)N[C@@H](CCC(=O)O)C(=O)O)cc3)c2c(=O)[nH]1 [Pemetrexed] (partner 0.2 µM) = 0.266

====

# Test system: NCI-H1666
# experiment-notes: relative viability (nuclei count vs DMSO), 5 days (fraction); higher = more cells survive
# settings: first compound 0.01 µM
# if measured relative viability < 0.8: true  # else: false

Before answering, review these 4 worked examples.
{"molecule": "Cc1cn(-c2cc(NC(=O)c3ccc(C)c(Nc4nccc(-c5cccnc5)n4)c3)cc(C(F)(F)F)c2)cn1 [Nilotinib] + O=C(CCCCCCC(=O)Nc1ccccc1)NO [Vorinostat] (partner 1 µM)", "category": "false"}
{"molecule": "Cc1cn(-c2cc(NC(=O)c3ccc(C)c(Nc4nccc(-c5cccnc5)n4)c3)cc(C(F)(F)F)c2)cn1 [Nilotinib] + N=C(N)NC(=N)NCCc1ccccc1 [Phenformin] (partner 250 µM)", "category": "true"}
{"molecule": "Cc1cn(-c2cc(NC(=O)c3ccc(C)c(Nc4nccc(-c5cccnc5)n4)c3)cc(C(F)(F)F)c2)cn1 [Nilotinib] + Cc1nc(NC(=O)N2CCC[C@H]2C(N)=O)sc1-c1ccnc(C(C)(C)C(F)(F)F)c1 [Alpelisib] (partner 2 µM)", "category": "false"}
{"molecule": "Cc1cn(-c2cc(NC(=O)c3ccc(C)c(Nc4nccc(-c5cccnc5)n4)c3)cc(C(F)(F)F)c2)cn1 [Nilotinib] + CC(C)C[C@H](NC(=O)[C@H](Cc1ccccc1)NC(=O)c1cnccn1)B(O)O [Bortezomib] (partner 0.002 µM)", "category": "true"}

Query string: Is the reported relative viability for Cc1cn(-c2cc(NC(=O)c3ccc(C)c(Nc4nccc(-c5cccnc5)n4)c3)cc(C(F)(F)F)c2)cn1 [Nilotinib] + COc1cccc2cc(-c3nc([C@H]4CC[C@H](C(=O)O)CC4)n4ncnc(N)c34)[nH]c12 [OSI-027] (partner 0.5 µM) strictly below 0.8?
Result string: false
